- testDetails: In vivo absorption after intranasal administration to rats (plasma concentration, two-antibody competition method)
- assaySetup: male, Crj:CD (SD), rat, inhaled or intranasal, 1 mg/kg, intranasal 1.0 mg/kg, 1.0 w/v % in aqueous 0.005 w/v % benzalkonium chloride, 0.1 ml/kg
Where a SMILES comes first, the peptide text is derived from it. [ ]: non-standard residue; d: D form. d2Nal = N[C@H](Cc1ccc2ccccc2c1)C(=O)O

compound: C[C@H](NC(=O)[C@@H](Cc1ccc2ccccc2c1)NC(=O)[C@@H](C)N)C(=O)N[C@@H](Cc1c[nH]c2ccccc12)C(=O)N[C@H](Cc1ccccc1)C(=O)N[C@@H](CCCCN)C(N)=O.Cl.Cl [pralmorelin dihydrochloride] (H-[dA][d2Nal]AW[dF]K-NH2)
Cmax: 502 ng/mL

====

- testDetails: In vivo absorption after intranasal administration to rats (plasma concentration, two-antibody competition method)
- assaySetup: Crj:CD (SD), rat, inhaled or intranasal, male rats, intranasal 0.3 mg/kg, 0.3 w/v % in aqueous 0.005 w/v % benzalkonium chloride, 0.1 ml/kg
Where a SMILES comes first, the peptide text is derived from it. [ ]: non-standard residue; d: D form. d2Nal = N[C@H](Cc1ccc2ccccc2c1)C(=O)O
measuredQuantity: Tmax (min)

compound: C[C@H](NC(=O)[C@@H](Cc1ccc2ccccc2c1)NC(=O)[C@@H](C)N)C(=O)N[C@@H](Cc1c[nH]c2ccccc12)C(=O)N[C@H](Cc1ccccc1)C(=O)N[C@@H](CCCCN)C(N)=O.Cl.Cl [pralmorelin dihydrochloride] (H-[dA][d2Nal]AW[dF]K-NH2)
measurementUnit: min
resultNumber: 10.2

====

- testDetails: In vivo absorption after intranasal administration to rats (plasma concentration, two-antibody competition method)
- assaySetup: male, Crj:CD (SD), rat, inhaled or intranasal, 50 ug/kg, intranasal 50 μg/kg, 0.4 w/v % solution in 2.5 w/v % D-mannitol (osmolarity ratio 0.5)
Where a SMILES comes first, the peptide text is derived from it. [ ]: non-standard residue; d: D form. d2Nal = N[C@H](Cc1ccc2ccccc2c1)C(=O)O
measuredQuantity: bioavailability (%)

molecule: C[C@H](NC(=O)[C@@H](Cc1ccc2ccccc2c1)NC(=O)[C@@H](C)N)C(=O)N[C@@H](Cc1c[nH]c2ccccc12)C(=O)N[C@H](Cc1ccccc1)C(=O)N[C@@H](CCCCN)C(N)=O.Cl.Cl [pralmorelin dihydrochloride] (H-[dA][d2Nal]AW[dF]K-NH2)
measuredQuantity: bioavailability
measurementUnit: %
resultNumber: 22.1

====

- testDetails: In vivo absorption after intranasal administration to rats (plasma concentration, two-antibody competition method)
- assaySetup: male, Crj:CD (SD), rat, other: intranasal, 50 ug/kg, intranasal 50 μg/kg, 0.1 w/v % solution in 5 w/v % D-mannitol, AUC intranasal / AUC intravenous
Where a SMILES comes first, the peptide text is derived from it. [ ]: non-standard residue; d: D form. d2Nal = N[C@H](Cc1ccc2ccccc2c1)C(=O)O

compound: C[C@H](NC(=O)[C@@H](Cc1ccc2ccccc2c1)NC(=O)[C@@H](C)N)C(=O)N[C@@H](Cc1c[nH]c2ccccc12)C(=O)N[C@H](Cc1ccccc1)C(=O)N[C@@H](CCCCN)C(N)=O.Cl.Cl [pralmorelin dihydrochloride] (H-[dA][d2Nal]AW[dF]K-NH2)
measurementUnit: %
bioavailability: 4.22

====

- testDetails: In vivo absorption after intranasal administration to rats (plasma concentration, two-antibody competition method)
- assaySetup: male, Crj:CD (SD), rat, inhaled or intranasal, 50 ug/kg, intranasal 50 μg/kg, 0.1 w/v % solution in 5 w/v % D-mannitol
- Method: With an isotonic solution (in distilled water) of 5 w/v % D-mannitol or physiological saline used as a solvent, a solution of 0.1 w/v % pralmorelin dihydrochloride was prepared and administered to male rats (7-week old, Crj:CD (SD) strain, N=3) in an amount of 50 μg/kg. […] The concentration of an unchanged substance in plasma was measured in accordance with the two-antibody competition method of Kitagawa et al. summarized below [J. Assoc. […]
Where a SMILES comes first, the peptide text is derived from it. [ ]: non-standard residue; d: D form. d2Nal = N[C@H](Cc1ccc2ccccc2c1)C(=O)O
measuredQuantity: Cmax (ng/mL)

compound: C[C@H](NC(=O)[C@@H](Cc1ccc2ccccc2c1)NC(=O)[C@@H](C)N)C(=O)N[C@@H](Cc1c[nH]c2ccccc12)C(=O)N[C@H](Cc1ccccc1)C(=O)N[C@@H](CCCCN)C(N)=O.Cl.Cl [pralmorelin dihydrochloride] (H-[dA][d2Nal]AW[dF]K-NH2)
measuredQuantity: Cmax
resultNumber: 2.37

====

- testDetails: In vivo absorption after intranasal administration to rats (plasma concentration, two-antibody competition method)
- assaySetup: male, Crj:CD (SD), rat, inhaled or intranasal, 0.1 mg/kg, intranasal 0.1 mg/kg, 0.1 w/v % in aqueous 0.005 w/v % benzalkonium chloride, 0.1 ml/kg
Where a SMILES comes first, the peptide text is derived from it. [ ]: non-standard residue; d: D form. d2Nal = N[C@H](Cc1ccc2ccccc2c1)C(=O)O

compound: C[C@H](NC(=O)[C@@H](Cc1ccc2ccccc2c1)NC(=O)[C@@H](C)N)C(=O)N[C@@H](Cc1c[nH]c2ccccc12)C(=O)N[C@H](Cc1ccccc1)C(=O)N[C@@H](CCCCN)C(N)=O.Cl.Cl [pralmorelin dihydrochloride] (H-[dA][d2Nal]AW[dF]K-NH2)
AUC [ng·h/mL]: 14.5

====

- testDetails: In vivo absorption after intranasal administration to rats (plasma concentration, two-antibody competition method)
- assaySetup: male, Crj:CD (SD), rat, inhaled or intranasal, 1 mg/kg, intranasal 1.0 mg/kg, 1.0 w/v % in aqueous 0.005 w/v % benzalkonium chloride, 0.1 ml/kg
- Procedure: With an isotonic solution (in distilled water) of 5 w/v % D-mannitol or physiological saline used as a solvent, a solution of 0.1 w/v % pralmorelin dihydrochloride was prepared and administered to male rats (7-week old, Crj:CD (SD) strain, N=3) in an amount of 50 μg/kg. […] The concentration of an unchanged substance in plasma was measured in accordance with the two-antibody competition method of Kitagawa et al. summarized below [J. Assoc. […]
Where a SMILES comes first, the peptide text is derived from it. [ ]: non-standard residue; d: D form. d2Nal = N[C@H](Cc1ccc2ccccc2c1)C(=O)O

molecule: C[C@H](NC(=O)[C@@H](Cc1ccc2ccccc2c1)NC(=O)[C@@H](C)N)C(=O)N[C@@H](Cc1c[nH]c2ccccc12)C(=O)N[C@H](Cc1ccccc1)C(=O)N[C@@H](CCCCN)C(N)=O.Cl.Cl [pralmorelin dihydrochloride] (H-[dA][d2Nal]AW[dF]K-NH2)
AUC [ng·h/mL]: 250

====

- testDetails: In vivo absorption after intranasal administration to rats (plasma concentration, two-antibody competition method)
- assaySetup: male, Crj:CD (SD), rat, inhaled or intranasal, 50 ug/kg, intranasal 50 μg/kg, 0.4 w/v % solution in 5 w/v % D-mannitol (osmolarity ratio 1)
- Protocol: With an isotonic solution (in distilled water) of 5 w/v % D-mannitol or physiological saline used as a solvent, a solution of 0.1 w/v % pralmorelin dihydrochloride was prepared and administered to male rats (7-week old, Crj:CD (SD) strain, N=3) in an amount of 50 μg/kg. […] The concentration of an unchanged substance in plasma was measured in accordance with the two-antibody competition method of Kitagawa et al. summarized below [J. Assoc. […]
Where a SMILES comes first, the peptide text is derived from it. [ ]: non-standard residue; d: D form. d2Nal = N[C@H](Cc1ccc2ccccc2c1)C(=O)O

molecule: C[C@H](NC(=O)[C@@H](Cc1ccc2ccccc2c1)NC(=O)[C@@H](C)N)C(=O)N[C@@H](Cc1c[nH]c2ccccc12)C(=O)N[C@H](Cc1ccccc1)C(=O)N[C@@H](CCCCN)C(N)=O.Cl.Cl [pralmorelin dihydrochloride] (H-[dA][d2Nal]AW[dF]K-NH2)
Cmax (µg/mL): 0.0492

====

- testDetails: In vivo absorption after intranasal administration to rats (plasma concentration, two-antibody competition method)
- assaySetup: male, Crj:CD (SD), rat, inhaled or intranasal, 50 ug/kg, intranasal 50 μg/kg, 0.1 w/v % solution in 5 w/v % D-mannitol
Where a SMILES comes first, the peptide text is derived from it. [ ]: non-standard residue; d: D form. d2Nal = N[C@H](Cc1ccc2ccccc2c1)C(=O)O
measuredQuantity: AUC (ng·h/mL)

compound: C[C@H](NC(=O)[C@@H](Cc1ccc2ccccc2c1)NC(=O)[C@@H](C)N)C(=O)N[C@@H](Cc1c[nH]c2ccccc12)C(=O)N[C@H](Cc1ccccc1)C(=O)N[C@@H](CCCCN)C(N)=O.Cl.Cl [pralmorelin dihydrochloride] (H-[dA][d2Nal]AW[dF]K-NH2)
measuredQuantity: AUC
resultNumber: 2.71

Each recorded value in this set is attributed to patent US7008927B2.
